For each entry below, report its sulfide remaining value.
assay: Treatment of sulfides in municipal wastewater using ferric chelants and ozone; details: start 13.70; ozone ~13.4 ppm, 4 ppm ferric chelant where used; 10 min contact
Answers are plain numbers, in ppm.

{"COMPOUND": "O=C([O-])CN(CCN(CC(=O)[O-])CC(=O)[O-])CC(=O)[O-].[Fe+3] [Fe-EDTA]", "sulfide remaining / ppm": 5.10}
{"COMPOUND": "O=C([O-])CN(CCO)CC(=O)[O-].[Fe+3] [Fe-HEIDA]", "sulfide remaining / ppm": 6.00}
{"COMPOUND": "O=C([O-])CN(CC(=O)[O-])CC(=O)[O-].[Fe+3] [Fe-NTA]", "sulfide remaining / ppm": 1.90}

Reported sulfide remaining, compound O=[O+][O-] [Ozone, ozone, reference compound] : ____
7.50

* * *

test: Treatment of sulfides in municipal wastewater using ferric chelants and ozone; details: start 13.70; ozone ~13.4 ppm, 4 ppm ferric chelant where used; 5 min contact
QUANTITY_NAME: sulfide remaining

{"MOLECULE": "O=C([O-])CN(CC(=O)[O-])CC(=O)[O-].[Fe+3]", "sulfide remaining": "3.40 ppm"}
{"MOLECULE": "O=C([O-])CN(CCN(CC(=O)[O-])CC(=O)[O-])CC(=O)[O-].[Fe+3]", "sulfide remaining": "6.20 ppm"}

Please report sulfide remaining for every entry that follows.
1. O=[O+][O-] [Ozone, ozone, reference compound]
2. O=C([O-])CN(CCO)CC(=O)[O-].[Fe+3]

1: 8.05 ppm; 2: 6.80 ppm

* * *

Assay: Treatment of sulfides in municipal wastewater using ferric chelants and ozone
Conditions: start 13.70; ozone ~13.4 ppm, 4 ppm ferric chelant where used; 20 min contact
From the text: The raw wastewater received a dose of 4 ppm of each of the four ferric chelants (mass calculated as chelant) just prior to addition of ozone. Ozone addition was accomplished using an ozone generator from Ozone Solutions, Sioux Center, Iowa. The generator was capable of generating up to 2 grams per hour of ozone. Injection of ozone into the wastewater was accomplished using an injection system from Ozone Solutions called the H2O-Mini. […]
Exercise: state measured sulfide remaining for each of the molecules provided.
Give bare numbers, in ppm.

Before answering, review these 3 worked examples.
{"MOLECULE": "O=C([O-])CN(CCN(CC(=O)[O-])CC(=O)[O-])CC(=O)[O-].[Fe+3] [Fe-EDTA]", "UNIT_OF_MEASUREMENT": "ppm", "DATA_VALUE": 4.90}
{"MOLECULE": "O=C([O-])CN(CCO)CC(=O)[O-].[Fe+3] [Fe-HEIDA]", "UNIT_OF_MEASUREMENT": "ppm", "DATA_VALUE": 5.40}
{"MOLECULE": "O=[O+][O-] [Ozone, ozone, reference compound]", "UNIT_OF_MEASUREMENT": "ppm", "DATA_VALUE": 7.40}

Recorded sulfide remaining of O=C([O-])CN(CC(=O)[O-])CC(=O)[O-].[Fe+3] [Fe-NTA] , please.
1.30
